# Test system: SW-620 colon
# Assay remarks: NCI-60 one-dose screen, 48 h (100 = growth as untreated, 0 = no growth, -100 = all killed)
# Cond: 10 µM unless noted
The panel holds about 83,000 compounds, 20% with a hit somewhere; the sample as a whole holds those more often.
Assay readout: growth (%)

[[record]]
given_smiles = "N#CCCCCCn1c2ccccc2c2c3[nH]c(=O)[nH]c(=O)c3c3c4ccccc4n(CCCCCC#N)c3c21"
assay_readout = "growth"
value_units = "%"
observed_measurement = 61.4

[[record]]
given_smiles = "COc1ccc(-c2nc(Nc3ccc(-c4nc5ccccc5[nH]4)cc3)nc(N3CCOCC3)n2)cc1"
assay_readout = "growth"
value_units = "%"
observed_measurement = 3.57

[[record]]
given_smiles = "COc1ccc(/C=C/C(=O)NCCO)cc1"
assay_readout = "growth"
value_units = "%"
observed_measurement = 99.3

[[record]]
given_smiles = "N#Cc1c(-c2ccco2)nc2c(c(-c3ccccc3)nn2-c2ccccc2)c1-c1ccc(O)cc1"
assay_readout = "growth"
value_units = "%"
observed_measurement = 48

[[record]]
given_smiles = "COc1ccc2[nH]c(-c3ccc(Cl)cc3)cc(=O)c2c1"
assay_readout = "growth"
value_units = "%"
observed_measurement = 98.2

[[record]]
given_smiles = "CC(C)/C=C/CC[C@](C)(O)[C@H]1CC[C@]2(C)[C@@H]1CC[C@@H]1[C@@]3(C)C/C(=C/c4cccc(C(F)(F)F)c4)C(=O)C(C)(C)[C@@H]3CC[C@]12C"
assay_readout = "growth"
value_units = "%"
observed_measurement = 93.3

[[record]]
given_smiles = "COc1cccc(-c2nn(-c3ccccc3)cc2-c2ccnc(NCCNS(=O)(=O)c3ccc(C(F)(F)F)cc3)c2)c1"
assay_readout = "growth"
value_units = "%"
observed_measurement = 28.4

[[record]]
given_smiles = "COc1cc(/C=C/c2cc(/C=C/c3ccc(O)c(OC)c3)n(-c3ccccc3)c(=O)n2)ccc1O"
assay_readout = "growth"
value_units = "%"
observed_measurement = 78.4

[[record]]
given_smiles = "N#C/C(=C\\c1ccc(-c2ccc(F)cc2)o1)c1nc(-c2ccco2)cs1"
assay_readout = "growth"
value_units = "%"
observed_measurement = 96.5

